target: Gamma-aminobutyric acid receptor subunit alpha-1 (Rattus norvegicus)
Sequence (P62813 whole entry): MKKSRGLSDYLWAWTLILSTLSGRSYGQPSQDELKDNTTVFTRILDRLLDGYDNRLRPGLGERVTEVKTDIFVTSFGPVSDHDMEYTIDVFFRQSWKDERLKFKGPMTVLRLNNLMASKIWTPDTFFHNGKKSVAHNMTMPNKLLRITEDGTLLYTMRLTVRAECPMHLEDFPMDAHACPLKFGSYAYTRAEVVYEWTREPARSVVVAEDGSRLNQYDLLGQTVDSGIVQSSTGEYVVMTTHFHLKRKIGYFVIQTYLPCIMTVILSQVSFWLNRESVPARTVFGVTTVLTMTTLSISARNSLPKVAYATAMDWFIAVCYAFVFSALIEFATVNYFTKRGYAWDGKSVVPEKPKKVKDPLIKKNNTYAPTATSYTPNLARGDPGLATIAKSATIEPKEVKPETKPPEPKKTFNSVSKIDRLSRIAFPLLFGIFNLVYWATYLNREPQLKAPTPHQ
Each entry below carries its reported Ki.

{"compound": "CNCC[C@H](Oc1cccc2ccccc12)c1cccs1 [DULOXETINE]", "Ki": "> 1 µM"}
{"compound": "COc1ccc(C(CN(C)C)C2(O)CCCCC2)cc1 (configuration not stated) [NSC_62923]", "Ki": "> 1 µM"}

====

Examples of compounds with documented pKi follow.
biological target: Alpha-1B adrenergic receptor (Rattus norvegicus)
Sequence (P15823 whole entry): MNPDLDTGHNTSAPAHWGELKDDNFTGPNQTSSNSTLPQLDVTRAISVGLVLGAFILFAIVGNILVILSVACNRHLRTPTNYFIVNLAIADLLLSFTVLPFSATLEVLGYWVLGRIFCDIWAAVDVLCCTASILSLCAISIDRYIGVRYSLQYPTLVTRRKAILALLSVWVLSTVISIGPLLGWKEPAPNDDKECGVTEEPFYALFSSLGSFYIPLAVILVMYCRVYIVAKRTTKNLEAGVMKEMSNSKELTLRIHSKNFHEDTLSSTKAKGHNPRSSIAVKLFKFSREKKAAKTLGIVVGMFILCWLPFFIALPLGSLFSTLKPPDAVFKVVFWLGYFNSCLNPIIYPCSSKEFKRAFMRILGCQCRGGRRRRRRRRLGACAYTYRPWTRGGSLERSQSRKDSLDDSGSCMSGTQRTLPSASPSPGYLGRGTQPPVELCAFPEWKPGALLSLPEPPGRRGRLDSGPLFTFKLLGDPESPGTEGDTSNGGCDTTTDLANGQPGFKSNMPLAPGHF
pKi: −log10 of the molar value.
measured-parameter: pKi

{"compound": "COc1ccc(C(CN(C)C)C2(O)CCCCC2)cc1 (configuration not stated)", "val": "< 6.00"}
{"compound": "CNCC[C@H](Oc1cccc2ccccc12)c1cccs1", "val": "< 6.00"}
